- System: 501Mel cells (parental)
- EXPERIMENT DESCRIPTION: Kinase inhibitor library screening, PrestoBlue cell viability, 1 or 10 μM, 72 h
- STUDY CONDITIONS: 501Mel Parental, 10μΜ; in %
cell viability (kinase inhibitor library screening) by entry:
OBSERVATION TYPE: cell viability (kinase inhibitor library screening)

* COc1cc2nccc(Oc3ccc(NC(=O)Nc4ccc(F)cc4F)c(F)c3)c2cc1OC | 85.3
* c1ccc2c(-c3cnn4cc(-c5ccc(N6CCNCC6)cc5)cnc34)ccnc2c1 | 0.949
* CNC(=O)c1cc(COc2nnc(Nc3ccc(Cl)cc3)c3ccoc23)ccn1 | 90.0
* Cc1ccc(NC(=O)c2cccc(N(C)C)c2)cc1NC(=O)c1ccc(O)cc1 | 89.6
* COc1cc(Nc2ncc(F)c(Nc3ccc4c(n3)N(COP(=O)(O)O)C(=O)C(C)(C)O4)n2)cc(OC)c1OC | 76.6
* O=C(NCc1ccccc1)c1csc(Nc2ccncn2)n1 | 76.8
* COc1cc(Nc2ncc(F)c(Nc3ccc4c(n3)NC(=O)C(C)(C)O4)n2)cc(OC)c1OC.O=S(=O)(O)c1ccccc1 | 71.4
* COc1cc2nccc(Oc3ccc(NC(=O)NC4CC4)c(Cl)c3)c2cc1C(N)=O | 105.7
